- experimental.details: Inhibition of IL-1beta-induced PGE2 production in human HCA-7 cells at 1 uM after 72 hrs by EIA
- Assay type: functional
- assay.setup: HCA-7, 72 h
Cut-off 90% on inhibition at 1 µM, inclusive. At or above means Condition met; below means Condition not met.

{"columns": ["chem.smiles", "label.class"],
 "data": [
  ["Clc1ccc(-c2csc(Nc3ccc4c(c3)OCO4)n2)cc1", "Condition met"],
  ["CN(c1ccc(O)cc1)c1nc(-c2ccc(Cl)cc2)cs1", "Condition not met"],
  ["Clc1ccc(-c2csc(Nc3ccccc3)n2)cc1", "Condition not met"],
  ["COc1ccc(Nc2nc(-c3ccc(OC)cc3)cs2)cc1", "Condition not met"],
  ["CC(=O)c1sc(Nc2ccccc2)nc1C", "Condition not met"]
]}

Inquiry: Reported inhibition at 1 µM reaches at least 90% for "CCc1sc(Nc2ccc(OC)cc2)nc1C" ?
Reply text: Condition met

Inquiry: Hi, just wondering whether "c1ccc(Oc2ccc(Nc3nc(-c4ccc5ccccc5c4)cs3)cc2)cc1" shows inhibition at 1 µM of 90% or higher.
Reply text: Condition not met

Inquiry: # check: inhibition at 1 µM of "CC(=O)c1sc(Nc2ccc(C#N)cc2)nc1C" is greater than or equal to 90%
Reply text: Condition not met
